Numbers sourced from paper PMC6440985.

Assay: Regional brain tissue binding by equilibrium dialysis, human post-mortem brain homogenate (control and AD donors)
Type: in vitro ADME
Details: human, post-mortem brain tissue homogenate, control donors, PrCx, pH 7.4, Control donors, PrCx; biological replicates; 1 µM, 6 h, 37 °C; read-out: fu,brain,ROI Mean
Measurement name: fraction unbound at 6 h, 1 µM
Reply: number alone, nothing else.

[in] Requested field: fraction unbound at 6 h, 1 µM. Item: Cc1nc2n(c(=O)c1CCN1CCC(c3noc4cc(F)ccc34)CC1)CCCC2O (stereo not drawn) [Paliperidone, paliperidone]
[out] 0.189

[in] What does the data say about its fraction unbound at 6 h, 1 µM? Entry: CC12CC3CC(C)(C1)CC(N)(C3)C2 [Memantine, memantine]
[out] 0.088

[in] Quick one: fraction unbound at 6 h, 1 µM of COc1ccc2c(c1)c(CC(=O)O)c(C)n2C(=O)c1ccc(Cl)cc1 [Indomethacin, indomethacin] ?
[out] 0.079
